ASSAY_PROTOCOL: Viability qHTS for spleen associated tyrosine kinase inhibitor (SYKi) drug resistant MV4-11 cells (AID 1963824); further: nearly all actives have a fitted effect of over 35% in size
EXPERIMENTAL_CONDITIONS: SYKi-resistant MV4-11 viability, CellTiter-Glo, 72 h; series mostly up to 45 µM
Results filed as inconclusive are left out. The source made the active and inactive calls. The call rests on the fitted dose curve; in most records, active means well fitted cell-killing curve with a large enough effect; inconclusive means small, poorly fitted or top-dose-only effect, or effect the other way; inactive means no such curve, though single readings can be large or run the other way.
Possible outcomes: active, inactive

INSERT INTO measurements (compound, class) VALUES
  ('CCCN1CCC[C@@H](c2cccc(S(C)(=O)=O)c2)C1', 'active'),
  ('Cn1c(=O)n(-c2ccc(C(C)(C)C#N)cc2)c2c3cc(C#Cc4cccnc4)ccc3ncc21', 'active'),
  ('CCCCOc1cc(C(=O)OCCN(CC)CC)ccc1N', 'inactive'),
  ('CC(OC1OCCN(Cc2n[nH]c(=O)[nH]2)C1c1ccc(F)cc1)c1cc(C(F)(F)F)cc(C(F)(F)F)c1 (stereo unspecified)', 'active'),
  ('CC1(C)CCC[C@@]2(C)[C@H]1[C@H](O)C=C(CO)[C@]2(O)CO', 'inactive'),
  ('O=S(=O)(O)NC1CCCCC1', 'inactive'),
  ('CCc1ccc(OCc2ccccc2C(=O)Nc2ccc3nc(C)cc(N)c3c2)cc1', 'active'),
  ('O=C1c2ccccc2CCc2ccccc21', 'inactive'),
  ('CCOC(=O)C(CCc1ccccc1)NC1CSC(c2cccs2)CN(CC(=O)O)C1=O (stereo unspecified)', 'active'),
  ('O=C(/C=C/c1cccnc1)c1ccncc1', 'active'),
  ('CC(=O)C1(C)CCC2C3C=C(C)C4=CC(=O)CCC4(C)C3CCC21C (stereo unspecified)', 'active');

----------
ASSAY_PROTOCOL: Quantitative highthroughput screen to assess conditional lethalithy of SEM cells grown in RPMI1640 with dialyzed fetal bovine serum (RPMI+ds) (AID 1963884); further: nearly all actives have a fitted effect of over 35% in size;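 on viability: 100% = DMSO control wells and 0% = empty wells without cells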
EXPERIMENTAL_CONDITIONS: SEM B-ALL cells, RPMI+dialyzed FBS, CellTiter-Glo viability, 48 h; series mostly up to 45.8 µM
Records with an inconclusive call do not appear. The source made the active and inactive calls. Calls come from the whole dose curve; as a rule, active = well fitted cell-killing curve with a large enough effect; inconclusive = small, poorly fitted or top-dose-only effect, or effect the other way; inactive = no such curve, though single readings can be large or run the other way.
Labels: Y = active, N = inactive

INSERT INTO measurements (structure_string, class) VALUES
  ('N#Cc1ccnc(N2C(=O)CC[C@H]2C(=O)N(c2cncc(F)c2)[C@H](C(=O)NC2CC(F)(F)C2)c2ccccc2Cl)c1', 'Y'),
  ('CC1=C(CO)C(=O)O[C@@H]([C@@H](C)[C@H]2CC[C@H]3[C@@H]4C[C@H]5O[C@]56[C@@H](O)C=CC(=O)[C@]6(C)[C@@H]4CC[C@]23C)C1', 'Y'),
  ('O=c1oc2c(O)c(O)cc3c(=O)oc4c(O)c(O)cc1c4c23', 'N'),
  ('CNC(=O)c1ccc(C)c(-n2c(C)cc(OCc3ccc(F)cc3F)c(Br)c2=O)c1', 'N');

----------
ASSAY_PROTOCOL: Cellular viability qHTS for adrenocortical cancer (ACC) cell line NCI-H295R (AID 1963990); further: nearly all actives have a fitted effect of over 60% in size
EXPERIMENTAL_CONDITIONS: CellTiter-Glo ATP luminescence, 48 h; series mostly up to 46.1 µM
Records with an inconclusive call do not appear. The source made the active and inactive calls. The call rests on the fitted dose curve; in most records, active means well fitted cell-killing curve with a large enough effect; inconclusive means small, poorly fitted or top-dose-only effect; inactive means flat fitted curve, though single readings scatter.
Possible outcomes: yes for active, no for inactive

INSERT INTO assay_data (structure_string, class) VALUES
  ('CNC(=O)c1ccc(N2C(=S)N(c3ccc(C#N)c(C(F)(F)F)c3)C(=O)C2(C)C)cc1F', 'no'),
  ('CC(/C=C1\SC(=S)N(CC(=O)O)C1=O)=C\c1ccccc1', 'no'),
  ('Cc1ccccc1C(=O)c1ccc(Nc2ccc(Br)cc2N)cc1Cl', 'yes'),
  ('C#C[C@]1(O)CC[C@H]2[C@@H]3CCC4=CC(=O)CC[C@@H]4[C@H]3CC[C@@]21CC', 'no'),
  ('C/C(=C\c1csc(C)n1)[C@@H]1C[C@@H]2O[C@]2(C)CCC[C@H](C)[C@H](O)[C@@H](C)C(=O)C(C)(C)[C@@H](O)CC(=O)N1', 'yes'),
  ('CCn1c(=O)c(-c2ccn[nH]2)cc2c(C)nc(N)nc21', 'yes'),
  ('Cc1c(N)cccc1C(F)(F)F', 'no'),
  ('CN1CCN(c2ccc(C(=O)Nc3n[nH]c4ccc(Cc5cc(F)cc(F)c5)cc34)c(NC3CCOCC3)c2)CC1', 'yes'),
  ('C[C@H]1NCc2cc(-c3ccc4c(=O)c(C(=O)O)cn(C5CC5)c4c3OC(F)F)ccc21', 'no');

----------
ASSAY_PROTOCOL: Viability qHTS for spleen associated tyrosine kinase inhibitor (SYKi) drug resistant MV4-11 cells (AID 1963824); further: nearly all actives have a fitted effect of over 35% in size
EXPERIMENTAL_CONDITIONS: SYKi-resistant MV4-11 viability, CellTiter-Glo, 72 h; series mostly up to 45 µM
Results filed as inconclusive are left out. Active and inactive are the calls of the source. The call rests on the fitted dose curve; in most records, active means well fitted cell-killing curve with a large enough effect; inconclusive means small, poorly fitted or top-dose-only effect, or effect the other way; inactive means no such curve, though single readings can be large or run the other way.
Classes used: true (1) for active, false (0) for inactive

INSERT INTO results (molecule, class) VALUES
  ('CCC1Nc2cc(Cl)c(S(N)(=O)=O)cc2S(=O)(=O)N1 (stereo not given)', 'false (0)'),
  ('CC1CCC/C=C/C(=O)c2c(O)cc(O)cc2CC(=O)O1 (stereo not given)', 'true (1)'),
  ('CC(C)=CCC/C(C)=C/CC/C(C)=C/C(=O)OCC(=O)[C@@]1(O)CC[C@H]2[C@@H]3CCC4=CC(=O)C=C[C@]4(C)[C@H]3[C@@H](O)C[C@@]21C', 'true (1)'),
  ('CCOc1ccc(NC(C)=O)cc1', 'false (0)'),
  ('O=c1[nH]sc2cc(Cl)ccc12', 'false (0)'),
  ('CC(=O)c1ccc(OCC(=O)N2CCCCC2)cc1', 'false (0)'),
  ('COc1cc(O[C@@H]2O[C@H](CO[C@H]3OC[C@](O)(CO)[C@H]3O)[C@@H](O)[C@H](O)[C@H]2O)cc(OC)c1O', 'false (0)'),
  ('N#CNC(=NCCCCCCOc1ccc(Cl)cc1)Nc1ccncc1', 'true (1)'),
  ('CC(C)OC(=O)C(C)(C)Oc1ccc(C(=O)c2ccc(Cl)cc2)cc1', 'false (0)'),
  ('CCCCCCCC(=O)[O-].CCCCCCCC(=O)[O-].[Zn+2]', 'false (0)');

----------
ASSAY_PROTOCOL: Quantitative highthroughput screen to assess conditional lethalithy of NOMO1 cells grown in RPMI1640 with dialyzed fetal bovine serum (RPMI+ds) (AID 1963877); further: nearly all actives have a fitted effect of over 30% in size;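 on viability: 100% = DMSO control wells and 0% = empty wells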
EXPERIMENTAL_CONDITIONS: NOMO1 in RPMI+dialyzed FBS viability, ATP luminescence, 48 h; series mostly up to 45.8 µM
Inconclusive results are not listed. The source made the active and inactive calls. Calls follow the shape of the dose curve; as a rule, active = well fitted cell-killing curve with a large enough effect; inconclusive = small, poorly fitted or top-dose-only effect; inactive = flat fitted curve, though single readings scatter.
Classes used: label 1 = active, label 0 = inactive

INSERT INTO results (compound, class) VALUES
  ('COc1ccc2cc(-c3nc(-c4ccc(S(C)=O)cc4)[nH]c3-c3ccncc3)ccc2c1 (centres undefined)', 'label 0'),
  ('Cc1cc(-c2nnc3n2CCCCC3)c(C)n1-c1ccccc1', 'label 0'),
  ('O=C(O)[C@@H](c1ccc(OCc2ccc3ccccc3n2)cc1)C1CCCC1', 'label 0'),
  ('CC1=C(C(=O)O)N2C(=O)[C@@H](NC(=O)[C@H](N)C3=CCC=CC3)[C@H]2SC1', 'label 0'),
  ('CC[C@H]1CN2CCc3cc(OC)c(OC)cc3[C@H]2C[C@@H]1C[C@@H]1NCCc2cc(OC)c(OC)cc21', 'label 1'),
  ('COc1cc(C)c(C=CC(C)=CC=CC(C)=CC(=O)O)c(C)c1C', 'label 0'),
  ('O=C(C=CC=Cc1ccc2c(c1)OCO2)N1CCCCC1', 'label 0'),
  ('c1ccc2c(CCNc3ccc(Nc4ccncc4)cc3)c[nH]c2c1', 'label 1'),
  ('CCC[C@@H](NC(=O)[C@@H]1[C@H]2CCC[C@@H]2CN1C(=O)[C@@H](NC(=O)[C@@H](NC(=O)c1cnccn1)C1CCCCC1)C(C)(C)C)C(=O)C(=O)NC1CC1', 'label 0');

----------
ASSAY_PROTOCOL: Cellular viability qHTS for adrenocortical cancer (ACC) cell line NCI-H295R (AID 1963990); further: nearly all actives have a fitted effect of over 60% in size; further: potency means the concentration at half of the fitted maximal effect
EXPERIMENTAL_CONDITIONS: CellTiter-Glo ATP luminescence, 48 h; series mostly up to 46.1 µM
Records with an inconclusive call do not appear. The source made the active and inactive calls. Calls follow the shape of the dose curve; as a rule, active = well fitted cell-killing curve with a large enough effect; inconclusive = small, poorly fitted or top-dose-only effect; inactive = flat fitted curve, though single readings scatter.
READOUT_TYPE: Potency

INSERT INTO measurements (compound, result) VALUES
  ('COc1cc(C=C2CCC/C(=C\c3ccc(O)c(OC)c3)C2=O)ccc1O', '7.31 µM (active)'),
  ('C[C@@H](C1=C(CCN(C)C)Cc2ccccc21)c1ccccn1', 'inactive'),
  ('CN(C)[C@@H]1C(=O)C(C(=O)NCN2CCCC2)=C(O)[C@@]2(O)C(=O)C3=C(O)c4c(O)cccc4[C@@](C)(O)C3C[C@@H]12 (stereo not given in full)', 'inactive'),
  ('CC(O)CCCCn1c(=O)c2c(ncn2C)n(C)c1=O (stereo not given)', 'inactive'),
  ('Cc1nnc(C(C)C)n1C1CC2CCC(C1)N2CC[C@H](NC(=O)C1CCC(F)(F)CC1)c1ccccc1 (stereo not given in full)', 'inactive');

The measured values listed here are drawn from PubChem BioAssay (NCATS).
